Reference source for all entries: the supplement of paper PMC10065799

Assignment: determine reported phosphorylation enrichment for the given sequences.
TARGET OR SYSTEM: EPHB1 (UniProt P54762)
Sequence (P54762 whole entry, looked up): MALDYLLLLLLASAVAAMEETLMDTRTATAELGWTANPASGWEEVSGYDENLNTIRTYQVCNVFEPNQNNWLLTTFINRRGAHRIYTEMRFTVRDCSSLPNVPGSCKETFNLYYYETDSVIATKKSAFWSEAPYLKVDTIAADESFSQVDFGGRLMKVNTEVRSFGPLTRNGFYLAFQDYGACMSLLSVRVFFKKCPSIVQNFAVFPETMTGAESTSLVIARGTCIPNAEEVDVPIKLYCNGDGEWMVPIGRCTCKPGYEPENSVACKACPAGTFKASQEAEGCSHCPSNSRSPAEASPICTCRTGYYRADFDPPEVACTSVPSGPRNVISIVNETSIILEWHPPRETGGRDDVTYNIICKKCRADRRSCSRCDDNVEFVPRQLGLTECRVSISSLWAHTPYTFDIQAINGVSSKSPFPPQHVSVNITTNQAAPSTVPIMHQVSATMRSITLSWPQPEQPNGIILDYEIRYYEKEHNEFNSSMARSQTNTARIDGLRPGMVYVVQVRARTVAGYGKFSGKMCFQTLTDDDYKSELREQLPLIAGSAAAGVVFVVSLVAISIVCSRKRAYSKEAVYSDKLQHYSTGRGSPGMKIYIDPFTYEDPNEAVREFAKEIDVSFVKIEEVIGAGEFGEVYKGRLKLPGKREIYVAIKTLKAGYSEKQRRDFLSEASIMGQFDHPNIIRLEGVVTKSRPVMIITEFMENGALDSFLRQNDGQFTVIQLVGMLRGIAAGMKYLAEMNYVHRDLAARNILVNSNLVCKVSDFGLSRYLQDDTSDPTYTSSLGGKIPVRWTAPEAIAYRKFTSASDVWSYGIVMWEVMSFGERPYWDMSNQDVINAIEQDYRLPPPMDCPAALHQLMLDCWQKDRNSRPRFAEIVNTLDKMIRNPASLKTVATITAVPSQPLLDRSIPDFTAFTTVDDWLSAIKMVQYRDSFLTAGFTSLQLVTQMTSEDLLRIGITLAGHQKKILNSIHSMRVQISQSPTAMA
ASSAY INFO: phosphorylation enrichment, bacterial display (enrichment ratio); higher = better substrate or ligand; peptides without Tyr show the background;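 also: 11-residue human phosphosite peptides and single-mutation variants displayed on the E. coli surface, counted by deep sequencing, each peptide's frequency after selection divided by its frequency in the unselected input library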;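 also: frequency after pTyr selection over input frequency; kinase dosed for 20-30% of maximal phosphorylation in three min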
// return a plain number; no unit text

IN: Param readout = phosphorylation enrichment; param system = EPHB1 (UniProt P54762); param query = IVRSPYEDLED [VHL_Y185_L184P] ; response: value
OUT: 0.58

IN: Param readout = phosphorylation enrichment; param system = EPHB1 (UniProt P54762); param query = GLVFLYVEKNQ [PRELP_Y156_M157V] ; response: value
OUT: 0.6

IN: Param readout = phosphorylation enrichment; param system = EPHB1 (UniProt P54762); param query = VVKLTYNENDN [CAMKK2_Y183_A182T] ; response: value
OUT: 0.491

IN: Param readout = phosphorylation enrichment; param system = EPHB1 (UniProt P54762); param query = TFEPNYGTVKQ [RAPGEF6_Y1447_YF] ; response: value
OUT: 0.582

IN: Param readout = phosphorylation enrichment; param system = EPHB1 (UniProt P54762); param query = VIGRMYDYHVL [RPF2_Y109] ; response: value
OUT: 1.33

IN: Param readout = phosphorylation enrichment; param system = EPHB1 (UniProt P54762); param query = RLLRGHDQSAF [HLA-C_Y137_Y137H_YF] ; response: value
OUT: 0.465

IN: Param readout = phosphorylation enrichment; param system = EPHB1 (UniProt P54762); param query = SAEKAYHEQLS [TUBA1A_Y282] ; response: value
OUT: 0.462

IN: Param readout = phosphorylation enrichment; param system = EPHB1 (UniProt P54762); param query = IEKLTYIDKWF [CPS1_Y872] ; response: value
OUT: 0.515

IN: Param readout = phosphorylation enrichment; param system = EPHB1 (UniProt P54762); param query = MKALGYFAVVK [OPA1_Y498_T503K] ; response: value
OUT: 0.507

IN: Param readout = phosphorylation enrichment; param system = EPHB1 (UniProt P54762); param query = VNYGAYINYFK [GLB1_Y488_D491Y] ; response: value
OUT: 1.9

IN: Param readout = phosphorylation enrichment; param system = EPHB1 (UniProt P54762); param query = MANFVYKAGPS [MAML2_Y515_M514V_YF] ; response: value
OUT: 0.436

IN: Param readout = phosphorylation enrichment; param system = EPHB1 (UniProt P54762); param query = HRAVEYLLMGI [RAD23A_Y197_T200M] ; response: value
OUT: 0.479

IN: Param readout = phosphorylation enrichment; param system = EPHB1 (UniProt P54762); param query = YKIYLYTLNDN [FN1_Y1975] ; response: value
OUT: 0.801

IN: Param readout = phosphorylation enrichment; param system = EPHB1 (UniProt P54762); param query = YSPYDYQPCLA [TNS1_Y798] ; response: value
OUT: 3.32

----------
Assignment: determine reported phosphorylation enrichment for the given sequences.
Tested on: Fer (mouse)
ASSAY INFO: phosphorylation enrichment, bacterial display (enrichment ratio); higher = better substrate or ligand; peptides without Tyr show the background

IN: Quick one: phosphorylation enrichment for KEAQVYQAFKL [SUCLG2_Y343] ?
OUT: 9.27

IN: Quick one: phosphorylation enrichment for QMVGMYASSSM [AVPR2_Y124_Y128S] ?
OUT: 0.472

IN: Quick one: phosphorylation enrichment for HVKHNYECLVF [XRCC5_Y416_I412V_YF] ?
OUT: 1.09

IN: Quick one: phosphorylation enrichment for ACCLLYRGDVV [TUBA4A_Y319] ?
OUT: 0.758

IN: Quick one: phosphorylation enrichment for LTTPTFGDLNH [TUBB_Y222_Y222F] ?
OUT: 1.05

IN: Quick one: phosphorylation enrichment for RHPYFFAPELL [ALB_Y174_Y174F] ?
OUT: 0.541

IN: Quick one: phosphorylation enrichment for HFPFQCHRQLY [F12_Y53_Y53C] ?
OUT: 0.385

IN: Quick one: phosphorylation enrichment for INNIDYFKKTT [FGFR2_Y656_YF] ?
OUT: 0.36

IN: Quick one: phosphorylation enrichment for CTTIHYNDMCN [TP53_Y234_Y236D] ?
OUT: 0.421

IN: Quick one: phosphorylation enrichment for IPPRRYFRSGV [STAMBP_Y36] ?
OUT: 0.548

IN: Quick one: phosphorylation enrichment for NLNGKCNKPRA [ANGPTL3_Y417_Y417C] ?
OUT: 0.64

IN: Quick one: phosphorylation enrichment for GGDGSYVSVPL [TNNI3K_Y425_S430L] ?
OUT: 0.486

IN: Quick one: phosphorylation enrichment for EFRFIYMAVQH [PTPN11_Y515_Q510E_YF] ?
OUT: 1.01

IN: Quick one: phosphorylation enrichment for EFSNQYKATIG [RAB7A_Y37_K32E] ?
OUT: 0.442

IN: Quick one: phosphorylation enrichment for TLARLYHRDST [LRIG1_Y1029_P1031R] ?
OUT: 0.71

IN: Quick one: phosphorylation enrichment for GDPTEYFSTAI [IGSF22_Y501_YF] ?
OUT: 0.433

IN: Quick one: phosphorylation enrichment for GRVFVYHLSEQ [ITGAE_Y551_R552H_YF] ?
OUT: 0.444

IN: Quick one: phosphorylation enrichment for GKANRYFSPNF [PTEN_Y336_D331G] ?
OUT: 0.477

IN: Quick one: phosphorylation enrichment for SLALFYRKVFH [RBL1_Y792_YF] ?
OUT: 0.494

IN: Quick one: phosphorylation enrichment for KNKELYSDLFD [PDE10A_Y300] ?
OUT: 1.84

IN: Quick one: phosphorylation enrichment for SWSTSYSGYRY [NKAPL_Y91] ?
OUT: 0.591

IN: Quick one: phosphorylation enrichment for HQNGMYRLHQD [SGSH_Y89_G90R] ?
OUT: 0.66

IN: Quick one: phosphorylation enrichment for LPVHFYSHVEH [PYGM_Y204_G205S] ?
OUT: 1.26

IN: Quick one: phosphorylation enrichment for PMDGEYFTLQI [TP53_Y327_L323M] ?
OUT: 1.57

IN: Quick one: phosphorylation enrichment for TGHKGYVAFLE [CARD9_Y76] ?
OUT: 0.403

IN: Quick one: phosphorylation enrichment for SSQHRYSTPHT [RAF1_Y232_A237T] ?
OUT: 0.425

IN: Quick one: phosphorylation enrichment for EEALYYLTRVE [SET_Y119_H118Y] ?
OUT: 5.28

IN: Quick one: phosphorylation enrichment for LSNPAYCLLLA [DDR1_Y513_R514C] ?
OUT: 0.973

IN: Quick one: phosphorylation enrichment for LDLSYYPTSSS [EMD_Y182] ?
OUT: 0.835

IN: Quick one: phosphorylation enrichment for ALAAPYVLFPG [CEFIP_Y1332_YF] ?
OUT: 0.543

IN: Quick one: phosphorylation enrichment for YHRQLYHKCTH [F12_Y58] ?
OUT: 0.467

IN: Quick one: phosphorylation enrichment for YRIGPYQPSVP [MATR3_Y784_N787S] ?
OUT: 0.429

IN: Quick one: phosphorylation enrichment for NKEAICSGFIR [SMCHD1_Y283_Y283C_YF] ?
OUT: 0.467

IN: Quick one: phosphorylation enrichment for ACDALYPPGPP ?
OUT: 0.469

IN: Quick one: phosphorylation enrichment for FKDGQYWIRGQ [ACSF3_Y466_R471Q] ?
OUT: 0.32

IN: Quick one: phosphorylation enrichment for GRRNTYYASIA [ACADM_Y352] ?
OUT: 0.414

IN: Quick one: phosphorylation enrichment for GRDQPYSGTGD [TYRO3_Y828_A831T] ?
OUT: 0.526

IN: Quick one: phosphorylation enrichment for ISDNACQYMLT [MYH7_Y162_Y162C] ?
OUT: 0.587

IN: Quick one: phosphorylation enrichment for LEFAKYGSLRG [RET_Y809_V804L_YF] ?
OUT: 0.373

IN: Quick one: phosphorylation enrichment for ELQDDYEDTME [SLC4A1_Y8_M11T] ?
OUT: 0.805

IN: Quick one: phosphorylation enrichment for GLVFLYVEKNQ [PRELP_Y156_M157V] ?
OUT: 0.575

IN: Quick one: phosphorylation enrichment for PVQAAYQKVVA [HBB_Y131] ?
OUT: 0.557

IN: Quick one: phosphorylation enrichment for HLEKKYVHRDS [CSF1R_Y708_R710H] ?
OUT: 0.585

IN: Quick one: phosphorylation enrichment for LLVVLYKFRCF [PSEN1_Y154_Y159F_YF] ?
OUT: 0.718

IN: Quick one: phosphorylation enrichment for PLTRSYIREKV [CYP2C8_Y243_A238P] ?
OUT: 0.262

IN: Quick one: phosphorylation enrichment for PLQSEYSSITT [ITGB4_Y1760] ?
OUT: 1.83

IN: Quick one: phosphorylation enrichment for SIKDKYVTAVY [KCNH2_Y611_L615V] ?
OUT: 0.431

IN: Quick one: phosphorylation enrichment for KRLKDYLTVLQ [USP25_Y425] ?
OUT: 0.431

IN: Quick one: phosphorylation enrichment for RHFTGCRIELQ [INSR_Y818_Y818C] ?
OUT: 0.503

IN: Quick one: phosphorylation enrichment for FQKDVYDIPPS [NEDD9_Y177_YF] ?
OUT: 0.502

IN: Quick one: phosphorylation enrichment for FADIAYNFRDG [PAH_Y166_H170D_YF] ?
OUT: 0.473

IN: Quick one: phosphorylation enrichment for EFAAGYNVKFD [GPX4_Y123] ?
OUT: 0.483

IN: Quick one: phosphorylation enrichment for VTRKEYFIFLE [CAMKV_Y95] ?
OUT: 0.528

IN: Quick one: phosphorylation enrichment for WFPANYVKLLN [ITSN1_Y1132_S1137N] ?
OUT: 0.511

IN: Quick one: phosphorylation enrichment for PFVFFYSFLLK [PTEN_Y178_R173P_YF] ?
OUT: 0.983

IN: Quick one: phosphorylation enrichment for SSVKPYRVYCD [FGB_Y266] ?
OUT: 0.42

IN: Quick one: phosphorylation enrichment for KKCTRYIDCDL [ASPA_Y64] ?
OUT: 0.423
